# EXPERIMENTAL SYSTEM: Sialic acid-binding Ig-like lectin 9 (Homo sapiens)
# ASSAY DETAILS: Hs-Siglec9 ALPHAscreen SOP 20170721
# Parameters: scale not given: direction of the effect not stated beside the values
# MEASUREMENT CONDITIONS: 10 µM
RECORDED METRIC: Percent Effect (%)
Write the number in % without appending the unit.

Would you please look over these solved cases?
{"columns": ["MOLECULE", "RECORDED METRIC", "MEASURED VALUE"],
 "data": [
  ["Cc1cccc(CN2CCC3(CCCN(C(=O)NC4CC4)C3)C2=O)n1 (stereo not given)", "Percent Effect", -16.1],
  ["CCOc1ncccc1NC(=O)N1CCc2ccccc2C1", "Percent Effect", 3.06],
  ["O=C1NCCN1C1CCCN(Cc2coc(-c3ccc(F)cc3)n2)C1 (stereo not given)", "Percent Effect", 25.4],
  ["Cn1cccc1CN1CCC2(CCCN(C(=O)Cc3cccnc3)C2)C1 (stereo not given)", "Percent Effect", -5.33]
]}

**Q:** Look up and state reported Percent Effect for Cc1cc(O)nc(C2CCCN(Cc3ccncc3)C2)n1 (stereo not given)
**A:** -7.91

**Q:** Look up and state reported Percent Effect for COc1ccc(-c2nc(CN3CC(n4cc(C)cn4)C3)no2)cc1
**A:** 16.8

**Q:** Look up and state reported Percent Effect for CN(C)c1ncccc1CNC(=O)N1CCCC1CN1CCCCC1 (stereo not given)
**A:** 0.716

* * *

# Lookup of reported Percent Effect keyed by entry
# EXPERIMENTAL SYSTEM: Ubiquitin-activating enzyme e1, putative (Leishmania donovani (strain BPK282A1)) (UniProt E9BSI1)
# Sequence (whole entry): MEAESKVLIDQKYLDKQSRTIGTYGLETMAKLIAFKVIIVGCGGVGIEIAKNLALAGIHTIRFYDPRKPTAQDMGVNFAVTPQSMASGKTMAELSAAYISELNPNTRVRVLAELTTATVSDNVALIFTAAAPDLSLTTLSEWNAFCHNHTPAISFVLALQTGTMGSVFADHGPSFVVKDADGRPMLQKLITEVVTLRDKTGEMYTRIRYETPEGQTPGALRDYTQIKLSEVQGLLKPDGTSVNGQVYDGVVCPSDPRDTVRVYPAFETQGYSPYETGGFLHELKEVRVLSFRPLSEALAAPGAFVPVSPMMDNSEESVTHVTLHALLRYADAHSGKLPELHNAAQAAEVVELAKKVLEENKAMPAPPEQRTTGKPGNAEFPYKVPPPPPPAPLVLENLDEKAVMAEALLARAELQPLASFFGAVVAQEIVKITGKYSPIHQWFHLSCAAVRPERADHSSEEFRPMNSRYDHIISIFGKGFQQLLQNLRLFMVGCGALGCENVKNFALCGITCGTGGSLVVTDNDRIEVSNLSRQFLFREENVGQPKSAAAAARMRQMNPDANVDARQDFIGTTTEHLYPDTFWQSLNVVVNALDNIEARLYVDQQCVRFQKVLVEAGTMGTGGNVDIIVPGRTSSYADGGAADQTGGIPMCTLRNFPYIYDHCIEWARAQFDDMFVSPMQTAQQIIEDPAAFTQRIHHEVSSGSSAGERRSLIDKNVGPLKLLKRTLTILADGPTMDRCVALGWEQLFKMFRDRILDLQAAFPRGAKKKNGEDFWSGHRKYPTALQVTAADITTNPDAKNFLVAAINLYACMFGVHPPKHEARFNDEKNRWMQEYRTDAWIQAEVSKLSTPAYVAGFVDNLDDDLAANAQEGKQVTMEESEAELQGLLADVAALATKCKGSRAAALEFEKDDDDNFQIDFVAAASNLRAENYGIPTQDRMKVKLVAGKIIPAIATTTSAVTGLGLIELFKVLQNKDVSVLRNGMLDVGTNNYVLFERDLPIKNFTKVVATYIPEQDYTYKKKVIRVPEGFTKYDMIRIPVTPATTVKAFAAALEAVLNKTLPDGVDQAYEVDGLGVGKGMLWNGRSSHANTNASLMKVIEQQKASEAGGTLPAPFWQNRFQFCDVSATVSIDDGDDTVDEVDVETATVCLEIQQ
# ASSAY DETAILS: Leishmania donovani Ubiquitin Activating Enzyme (LdE1)
# Type: functional
# Set-up: scale not given: direction of the effect not stated beside the values
# MEASUREMENT CONDITIONS: 30 µM
Potency and affinity values are given separately.
// return the numeric value with its unit appended

Would you please look over these solved cases?
{"columns": ["COMPOUND", "Percent Effect"],
 "data": [
  ["Cc1cnn(CCNCc2csc(C)n2)c1", "-5.33%"],
  ["O=C(NC1CCCC1)[C@@H]1CN(Cc2nccs2)C[C@H]2OCC[C@H]21", "2.67%"],
  ["CCc1noc(C(C)N2CCN(Cc3nc(C)c(C)o3)CC2)n1 (configuration not stated)", "0%"],
  ["O=C(Cc1ccc2c(c1)OCCO2)NC1CCCC1", "18.2%"],
  ["NC(=O)C1CN(C(=O)Nc2cc(Cl)cc(Cl)c2)CCO1 (configuration not stated)", "0%"]
]}

**Q:** Look up and state reported Percent Effect for N#Cc1ccc(CN2CCN(C(=O)C3CCC3)[C@@H]3CS(=O)(=O)C[C@@H]32)cc1
**A:** 5.2%

**Q:** Look up and state reported Percent Effect for CSC(C)(C)CNC(=O)NC1CCSCC1
**A:** 13.3%

From: ChEMBL document CHEMBL3988442
